Assay: viability gain of MRP-1-high H69AR cells under doxorubicin, pilot screen, MRP-1 activator project, CellTiter-Glo, duplicate (AID 807);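 also: compound pretreatment 18-22 h then 72 h combined with doxorubicin; 0% = doxorubicin alone and 100% = vehicle without doxorubicin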
Conditions: H69AR viability with doxorubicin, CellTiter-Glo luminescence; at 10 µM; stronger effect = higher value
Activity calls are given as the source filed them.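 The calls were made as follows: active = viability increase at or above a cutoff of the median across tested compounds plus 3 SD (cut at about 8.5% in these data, passing the limit was not always enough); inconclusive = some gains above the cutoff, reason not given; inactive = the rest.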
Recorded endpoint: viability increase

q: Look up viability increase: CC(=O)c1ccc(OCC(O)CN2CCCC(C)C2)cc1 (stereo unspecified)
a: -0.81% (inactive)

q: Look up viability increase: "Cc1c(NC(=O)c2ccc3c(c2)OCO3)c(=O)n(-c2ccccc2)n1C"
a: -0.33% (inactive)

q: Look up viability increase: "COC(=O)c1ccc(NC(=O)c2cccc(OC)c2)cc1"
a: 1.59% (inactive)

q: Look up viability increase: "CCCC(=O)NCCc1cc2ccc(C)c(C)c2[nH]c1=O"
a: -1.61% (inactive)

q: Look up viability increase: "COCn1c(-c2cccc(Br)c2)nc2ccccc21"
a: -4.2% (inactive)

q: Look up viability increase: "CC(C)NC(=O)c1ccc(CS(=O)(=O)c2ccc(Br)cc2)o1"
a: -1.73% (inactive)

---

Assay: Restrictive medium S. cerevisiae growth inhibition, OD615, pilot screen of yeast lifespan reduction project, restrictive growth control (AID 706);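 also: modified DeaD lifespan yeast strain shifted to restrictive glucose medium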
Settings: OD615, 48 h, at 10 µM, stronger effect = higher value
Recorded endpoint: growth inhibition (%)
State just the number; it will be interpreted in %.

q: Look up growth inhibition: "COc1cccc(N(CC(=O)NCc2cccnc2)S(C)(=O)=O)c1"
a: -4.04

q: Look up growth inhibition: "O=C(CN1C(=O)CCC1=O)Nc1nc(-c2ccccn2)cs1"
a: -9.21

q: Look up growth inhibition: "O=C(O)c1cc2nc(C3CC3)cc(C(F)(F)F)n2n1"
a: -2.47

q: Look up growth inhibition: "N=c1n(CCO)c2ccccc2n1CCOc1ccc(Cl)cc1Cl"
a: 4.96

q: Look up growth inhibition: "CCCn1c(CCC(=O)O)ccc1-c1cccs1"
a: 7.04

q: Look up growth inhibition: "COCCNC(=O)COc1ccccc1Cl"
a: 0.04

---

Test: inhibitors of the yeast RAM network, pilot screen, dse1pr::URA3 reporter, 5-FOA selection (AID 869);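 also: 0% = DMSO wells with no growth and 100% = 10 µM 1-NA-PP1 with full growth; RAM network block rescues cells from 5-FOA so hits raise OD615 growth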
Settings: S. cerevisiae dse1pr::URA3 5-FOA growth, OD615, 2 d; at 10 µM; stronger effect = higher value; strain carries analog-sensitive mutant Cbk1 kinase
Recorded endpoint: inhibition (%)
State just the number; it will be interpreted in %.

q: Look up inhibition: "COC(=O)c1ccc(-n2nnnc2SCC(=O)N2CCCCC2)cc1"
a: 0.045

q: Look up inhibition: "O=C(COc1ccc(Cl)cc1)OCC(=O)N1CCCC1"
a: 1.44

q: Look up inhibition: "Cc1cccc(CCNC(=O)c2nnc(Cc3ccc(Cl)cc3)o2)c1"
a: 1.27

q: Look up inhibition: "CCC(=O)N/C(=N/c1nc(C)cc(C)n1)Nc1cccc(OC)c1"
a: 2.23

q: Look up inhibition: "COC(=O)C1=C(O)CSC1=Nc1cccc(C(F)(F)F)c1"
a: 0.625

q: Look up inhibition: COc1ccc(C2N3CC4(C)CN2CC(C)(C3)C4O)cc1 (configuration not stated)
a: 1.22

q: Look up inhibition: "CCOc1ccc(N(CC(=O)OC)S(=O)(=O)c2c(C)noc2C)cc1"
a: -0.69

q: Look up inhibition: CC1=CC(c2ccccc2)n2nc(NS(=O)(=O)c3ccc(C)cc3)nc2N1 (configuration not stated)
a: 0.09

q: Look up inhibition: COCCOC(=O)C1=C(C)NC2=C(C(=O)CCC2)C1c1ccc(N(C)C)cc1 (configuration not stated)
a: 0.975

q: Look up inhibition: "CCCC(=O)Nc1nnc(-c2ccc(Cl)s2)o1"
a: 1.61

q: Look up inhibition: "Cc1ccsc1-c1nc(CSCC(=O)NCc2ccc3c(c2)OCO3)c(C)o1"
a: 0.83

q: Look up inhibition: "COC(=O)c1ccc(CSc2nc3c(c(=O)n2-c2ccc(F)cc2)SCC3)o1"
a: 1.3

q: Look up inhibition: "Cc1sc2nc3ccc(N4CCCC4)nn3c(=O)c2c1C"
a: 0.845

q: Look up inhibition: "COCCCNC(=O)CN1C(=O)CSc2ncccc21"
a: 2.06

q: Look up inhibition: "Cn1c(C(=O)NC2CCCCC2)cc2c(=O)n(C)c3ccccc3c21"
a: 1.46

q: Look up inhibition: "CCOC(=O)COc1ccc2cc(C(=O)OCC)c(=O)oc2c1"
a: 1.7

q: Look up inhibition: CCOCCCNC(=O)C(c1ccc(C)cc1)N1CCOCC1 (configuration not stated)
a: 1.84

q: Look up inhibition: "CCOCCn1c(CN2CCC(C)CC2)nc2c1c(=O)n(C)c(=O)n2C"
a: 0.02

q: Look up inhibition: "COc1ccc(Cc2nnc(Nc3ccc(C)cc3C)[nH]c2=O)cc1"
a: 1.08

q: Look up inhibition: "O=C(Cn1cc2c(n1)CCCC2)NC1CCCCCC1"
a: 0.485

q: Look up inhibition: O=C(CC1SC(=Nc2ccccc2)N(CCCCO)C1=O)NCc1ccccc1 (configuration not stated)
a: 0.065

q: Look up inhibition: "CCOC(=O)c1sc(NC(=O)c2ccco2)nc1C"
a: 1.66

q: Look up inhibition: COc1ccc(C2=CC(c3ccc(Cl)cc3)n3cnnc3N2)cc1OC (configuration not stated)
a: 0.37

q: Look up inhibition: "O=C(CCCOc1ccccc1)Nc1ccc2c(c1)OCCO2"
a: 1.16

q: Look up inhibition: "CC(=O)c1cccc(NC(=O)Cn2cc3c(n2)CCCC3)c1"
a: 0.1

q: Look up inhibition: "COc1ccccc1CC(=O)N1CCN(c2cccc(C(F)(F)F)c2)CC1"
a: 1.1

q: Look up inhibition: "Fc1ccccc1COc1ccc(/C=N/n2cnnc2)cc1"
a: 2.11

q: Look up inhibition: "COC(=O)c1cn(NC(=O)c2ccc3c(c2)OCO3)c(=O)c2ccccc12"
a: 1.44

q: Look up inhibition: "Cc1ccccc1CNc1nc(N)n(-c2ccccc2)n1"
a: 0.48

q: Look up inhibition: "c1ccc(Nc2nc3ccccc3n3cnnc23)cc1"
a: 2.09

q: Look up inhibition: "Nc1cc(C(F)(F)F)ccc1C(=O)O"
a: 0.43

q: Look up inhibition: "O=C(C1CCN(S(=O)(=O)c2cccc3cccnc23)CC1)N1CCn2c1nc1ccccc12"
a: 2.52

q: Look up inhibition: "CCOc1ccc2[nH]c(C)c(CN(C)C)c(=O)c2c1"
a: -0.27

q: Look up inhibition: Cc1ccccc1NC(=O)CC1SC(=NC2CCCCC2)NC1=O (configuration not stated)
a: 1.62

q: Look up inhibition: "O=c1[nH]cnc2c1sc(=S)n2-c1ccccc1"
a: 1.87

q: Look up inhibition: COC(=O)c1nc2n(n1)C(c1cccc(Cl)c1)C1=C(CC(C)(C)CC1=O)N2 (configuration not stated)
a: 0.75

q: Look up inhibition: "Nc1c(C(=O)CCC(=O)O)oc2ccc(Cl)cc12"
a: 0.635

q: Look up inhibition: COc1ccc(C2CC(=O)N3CN(c4ccccc4F)CSC3=C2C#N)cc1OC (configuration not stated)
a: 1.22

q: Look up inhibition: "COc1ccc(N=CC2=C(O)CC(C)(C)CC2=O)cc1"
a: 0.71

q: Look up inhibition: "Cc1cnn(-c2ccc3nnc(-c4ccc(Br)cc4)n3n2)c1"
a: 1.4

q: Look up inhibition: COc1ccc(S(=O)(=O)NCC2CCC(C(=O)N3CCC4(CC3)OCCO4)CC2)cc1 (configuration not stated)
a: 0.81

q: Look up inhibition: "Cc1ccc(-c2nc(NC(=O)CSc3nnc(C)s3)ns2)cc1"
a: 0.34

q: Look up inhibition: "Cc1c(C(=O)NCc2ccc3c(c2)OCO3)oc2ccccc12"
a: -0.54

q: Look up inhibition: "Cc1cc(C)c(S(=O)(=O)N2CCN(C)CC2)c(C)c1"
a: 0.885

q: Look up inhibition: "COc1cc2ccccc2cc1-c1nnc(COc2ccccc2)o1"
a: 4

q: Look up inhibition: "COCc1cc(C)nc2sc(C(=O)Nc3nccs3)c(N)c12"
a: 0.145

q: Look up inhibition: O=C1C2C3c4ccccc4C(c4ccccc43)C2C(=O)N1Cc1ccco1 (configuration not stated)
a: 0

---

Test: OD615 S. cerevisiae growth inhibition, permissive medium, pilot counter-assay, permissive growth control for S. cerevisiae lifespan shortening project (AID 705)
Details: OD615, 24 h, at 10 µM, stronger effect = higher value
Active and inactive are the calls of the source.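 How the source made its calls: active means growth inhibition above 25% in both replicates, a cutoff set 3 SD above the mean; inconclusive means above 25% in only one replicate; inactive means the rest.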
Please go through the items and note down their growth inhibition.

q: Look up growth inhibition: "O=C(Cn1ncc2c1-c1ccccc1OC2)N1CCN(Cc2ccc3c(c2)OCO3)CC1"
a: -1.44% (inactive)

q: Look up growth inhibition: "COc1cc2c(C(=O)NCc3ccccn3)cn(CC(C)C)c(=O)c2cc1OC"
a: -6.14% (inactive)

q: Look up growth inhibition: "CCOCCn1c(SCc2cccc(C)c2)nc2c1c(=O)[nH]c(=O)n2C"
a: -7.34% (inactive)

q: Look up growth inhibition: "C=C1c2cc(CC)ccc2NC(=O)N1c1ccc(C)cc1"
a: -6.46% (inactive)

q: Look up growth inhibition: CC1=C(C(=O)OCC2CCCO2)C(c2ccccc2)NC(=O)N1 (stereo not drawn)
a: -9.26% (inactive)

q: Look up growth inhibition: O=C(NC1CCCc2ccccc21)C1CCC(CNc2c(N3CCOCC3)c(=O)c2=O)CC1 (stereo not drawn)
a: -6.7% (inactive)

q: Look up growth inhibition: "O=C(COC(=O)C1(c2ccccc2F)CCCC1)N1CCN(C(=O)c2ccco2)CC1"
a: -13.4% (inactive)

q: Look up growth inhibition: "COc1ccc(NC(=O)Nc2cccc(OC)c2)cc1"
a: -3.64% (inactive)

q: Look up growth inhibition: "CC(=O)Nc1nonc1-c1nc2ccccc2n1Cc1nnc(C)o1"
a: 3.66% (inactive)

q: Look up growth inhibition: O=C1Nc2ccc(S(=O)(=O)N3CCCC3C(=O)O)c3cccc1c23 (stereo not drawn)
a: 1.8% (inactive)

q: Look up growth inhibition: Cc1ccc2c(c1)NCC(C(=O)NCc1ccccc1)O2 (stereo not drawn)
a: -10.4% (inactive)

q: Look up growth inhibition: "CCc1nnc(NC(=O)CSc2nccn2-c2cc(C)cc(C)c2)s1"
a: 3.21% (inactive)

q: Look up growth inhibition: "CN(c1ccccc1)S(=O)(=O)c1cccc(C(=O)N2CCN(c3ccccn3)CC2)c1"
a: 2.2% (inactive)

q: Look up growth inhibition: "CC(C)NS(=O)(=O)c1ccc2c(c1)oc(=O)n2C"
a: -2.26% (inactive)

q: Look up growth inhibition: "CCN1CCN(CC(=O)NC2CCCC2)C(=O)C1=O"
a: 5.56% (inactive)

q: Look up growth inhibition: Cn1c(C(C#N)C(=O)Cc2cccc3ccccc23)nc2ccccc21 (stereo not drawn)
a: -3.6% (inactive)

q: Look up growth inhibition: "O=C(CSCc1ccc(Cl)cc1)c1ccco1"
a: -9.9% (inactive)

q: Look up growth inhibition: "COc1ccc(C)cc1NC(=O)c1ccoc1C"
a: -1.21% (inactive)

q: Look up growth inhibition: "Cc1nnc(SCC(=O)Nc2ccc3c(c2)COC3=O)n1-c1ccccc1"
a: -9.99% (inactive)

q: Look up growth inhibition: "COc1cccc(NS(=O)(=O)c2nc3nc(C)cc(C)n3n2)c1"
a: -10.2% (inactive)

q: Look up growth inhibition: "CN1CCN(S(=O)(=O)c2ccc3c4c(cccc24)C(=O)N3)CC1"
a: -11.8% (inactive)

q: Look up growth inhibition: "COc1cc(NC(=O)C2CCCC2)c(OC)cc1Cl"
a: -8.4% (inactive)

q: Look up growth inhibition: "COc1ccc(-c2nnc(SCC(=O)N3CCN(c4ccccc4)CC3)o2)cc1OC"
a: -7.28% (inactive)

FYI, the data here is from PubChem BioAssay.
